# test: A CellTox Green Cytotoxicity Assay to monitor cytotoxicity in HepG2 cells - 40 hour (AID 1224879); note: nearly all actives have a fitted effect of over 40% in size
# reportedConditions: CellTox Green fluorescence; series mostly up to 76.8 µM
Inconclusive results are not listed. Calls of active or inactive are those of the source. Calls come from the whole dose curve; as a rule, active = well fitted activation curve with a large enough effect in the repeat runs; inconclusive = weak or mixed curves; inactive = flat fitted curve, though single readings scatter.
Hi there, use one of these labels in your reply, thanks! active, inactive

compound | assignedLabel
C1CC(COCC2CO2)CCC1COCC1CO1 (stereo unspecified) | inactive
CCc1ccc(C)nc1 | inactive
C=CC(=C)CCC=C(C)C | inactive
OCCC(O)CO (stereo unspecified) | inactive

Kindly consider the entry below.
Per the assay record, what outcome was assigned to `CCC1CCCCC1` ?
inactive
